Test: NCI Yeast Anticancer Drug Screen. Data for the bub3 strain (AID 167)
Details: S. cerevisiae bub3 mutant strain, at 50.0 µM
Compounds without any hit were thinned out: in the full panel of roughly 79,000, 15% have a hit. Activity calls are given as the source filed them. Cut-off read from the data, not from the text of the source: active = growth inhibition above about 70%; inactive = the rest.
Possible outcomes: active, inactive

>>> classification("COC(=O)/C(C#N)=C(/SC)N(C)C")
"inactive"
>>> classification("CC1=Cc2cc3[n-]c(cc4nc(cc5[n-]c(cc1n2)cc5C)C(C)=C4CCC(=O)O)c(CCC(=O)O)c3C.[Pd+2]")
"inactive"
>>> classification("NCCOB(c1ccccc1)c1ccccc1")
"active"

* * *

Experiment: NCI Yeast Anticancer Drug Screen. Data for the sgs1 mgt1 strain (AID 161);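 note: 0% = growth of cultures given vehicle only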
Details: S. cerevisiae sgs1 mgt1 strain, at 50.0 µM, hits give high values
This is part of a sample that, as a whole, favours compounds with a hit. Of some 79,000 tested, about 15% had one in any assay.
Value type: growth inhibition (%)

>>> value_observed("Cc1cc(C(=O)CBr)c(CN2C(=O)c3ccccc3C2=O)c(=O)n1C")
74.3
>>> value_observed("CCC[CH2][Sn]1([CH2]CCC)[O]CC([CH2][Sn]([c]2ccccc2)([c]2ccccc2)[c]2ccccc2)[O]1 (stereo not given)")
90.8
>>> value_observed("CCCCCCCNC1CCCc2cc(OC)ccc21 (stereo not given)")
84.2
>>> value_observed("CC1OC(OP(=O)(OCc2ccccc2)OCc2ccccc2)C(OC(=O)c2ccccc2)C(OC(=O)c2ccccc2)C1I (stereo not given)")
90.1
>>> value_observed("CCCCCCSC(=Cc1cccc[n+]1C)SCCCCCC")
99.7
>>> value_observed("CC1=C(C)C1[N+](=O)[O-]")
69
>>> value_observed("CC(C)c1ccc(C(=O)C2CC2)cc1")
50.6
>>> value_observed("COc1ccc(C(CN2CCOCC2)C(C)=O)cc1OC (stereo not given)")
88.5
>>> value_observed("CCOC(=O)Nc1nc2ccc(SC#N)cc2s1")
79.8
>>> value_observed("CSC(=S)CC(O)[C@@H]1CC2c3ccccc3C1c1ccccc12 (stereo not given in full)")
65.7
>>> value_observed("[C-]#[N+]C(C)(c1ccccc1)c1ccccc1")
95.5
>>> value_observed("CC1(C)CCN(CCOC(=O)C(c2ccccc2)C2C=CCCC2)C1 (stereo not given)")
77
>>> value_observed("COc1cc(C(Sc2ccccc2C(=O)O)Sc2ccccc2C(=O)O)ccc1O")
97.4
>>> value_observed("CCOc1ccc2c(c1)[n+]([O-])c(-c1ccc([N+](=O)[O-])cc1)c(N)[n+]2[O-]")
96
>>> value_observed("O=C1C(c2c[nH]c3ccccc23)=Nc2ccc(Br)cc21")
73
>>> value_observed("C=C(CSCCCCCCCCCCCC)C(=O)O")
98.5
>>> value_observed("CC(C)c1ccc2c(c1)CC[C@H]1[C@](C)(C(=O)O)CCC[C@]21C")
91.8
>>> value_observed("CC1=NOC(=O)/C1=C/c1ccc(Cl)c(Cl)c1")
52.5
>>> value_observed("Cn1c2c(c3ccccc31)CCN(CCN1CCN(c3cccc(Cl)c3)CC1)C2=O")
87.8
>>> value_observed("N/C(=N\\OC1(c2ccccc2)OC(=O)C(=O)/C1=C(/O)c1ccccc1)c1ccccc1 (stereo not given)")
96.6
>>> value_observed("CCCCCCCCCCOC(=O)c1cc[n+](C)cc1")
-1.75
>>> value_observed("COc1cc2c(cc1O)-c1c(cnn1-c1ccc([N+](=O)[O-])cc1)CCC2")
85.6
>>> value_observed("COc1ccc(/C=C2\\CN(C)C/C(=C\\c3ccc(OC)cc3)C2=O)cc1")
31.9
>>> value_observed("O=[N+]([O-])c1ccc(S(=O)(=O)Cc2ccccc2)c2nonc12")
99
>>> value_observed("CCC(=O)Oc1c(Cl)cc(Cl)c(Cl)c1Cl")
48.1
>>> value_observed("C/C(=N/NC(=O)C[n+]1ccccc1)C(CN(CC(C)C)CC(C)C)C(=O)Nc1ccc(C)cc1C (stereo not given)")
8.65
>>> value_observed("CN(C)CCN(C)CCC(=O)/C=C/c1ccccc1")
99.5
>>> value_observed("COc1ccc(-c2ccccc2)cc1SCCC(=O)O")
48.3
>>> value_observed("[Cl][Ge]([c]1ccccc1)[c]1ccccc1.[Cl][Ge]([c]1ccccc1)[c]1ccccc1")
55.1
>>> value_observed("NC(=O)c1oc([N+](=O)[O-])c(-c2ccccc2)c1-c1ccccc1")
55.4
>>> value_observed("CC[N+]1(C)CC2CCC(CC2)C1 (stereo not given)")
7.2
>>> value_observed("O=C(CCN1CCN(c2cccc(Cl)c2)CC1)N1CCc2c([nH]c3ccccc23)C1c1cccnc1 (stereo not given)")
90.4
>>> value_observed("OCC(O)Cc1c(Cl)c(Cl)c(Oc2c(Cl)c(Cl)c(CC(O)CO)c(Cl)c2Cl)c(Cl)c1Cl (stereo not given)")
4.95
>>> value_observed("O=c1oc(-c2cc([N+](=O)[O-])cc([N+](=O)[O-])c2Cl)nc2ccccc12")
83.7
>>> value_observed("CCOC(=O)c1c(C)[nH]c(C(=O)C(N)C(=O)OCC)c1C (stereo not given)")
98.8

Data origin, for the record: PubChem BioAssay (NCI)
